# Tested on: IL-15 induced P-STAT5 in human PBMC
# PROTOCOL: PBMC IL-15 induced P-STAT5
# Type: cell-based
# CONDITIONS: IL-15 stimulated, read-out: PBMC IL15-STAT5 IC50
pIC50: −log10 of the molar value.
READOUT_LABEL: pIC50

C=CC(=O)N1C[C@H](Nc2ncnc3[nH]ccc23)[C@H]2CC[C@@H]1C2 (racemic) yielded pIC50 of < 5.00

* * *

# PROTOCOL: Stability of JAK3 covalent inhibitors in human whole blood
# Format: in vitro ADME
# CONDITIONS: both sexes, whole blood, 37° C., read-out: Human blood stability t1/2
Class Met: half-life at 1 μM at least 200 min. Class Not met: half-life at 1 μM below 200 min.

A selection of reference data follows.
MOLECULE	CAT
C=CC(=O)N1[C@@H]2CC[C@H]1CN(c1cnc3[nH]cc(C(=O)NC(C)C)c3n1)C2	Not met
C=CC(=O)N1CCC(Nc2cnc3[nH]cc(C(=O)N[C@@H](C)COC)c3n2)CC1	Met

Query: Dear colleague, could you confirm whether "C=CC(=O)N1CCC[C@@H](Nc2ccnc3[nH]cc(C)c23)C1" has half-life at 1 μM at or above 200 min?
Reply: Met

Query: Kindly determine if half-life at 1 μM recorded for "C=CC(=O)N(C)C1CN(c2cnc3[nH]cc(C(=O)NC(C)C)c3n2)C1" is above or exactly 200 min.
Reply: Met

Query: Entry "C=CC(=O)N1CC[C@]2(C)CCN(c3ncnc4[nH]ccc34)[C@@H]2C1" : is its half-life at 1 μM no less than 200 min?
Reply: Not met

Query: Is half-life at 1 μM at least 200 min? Consider "C=CC(=O)N1CCN(c2cnc3[nH]cc(C(=O)NC(C)C)c3n2)[C@H](C)C1"
Reply: Not met

Query: Tell me whether half-life at 1 μM is at least 200 min here: C=CC(=O)N1CCC(Nc2cnc3[nH]cc(C(=O)NC4CCCC4(F)F)c3n2)CC1 (centres unmarked)
Reply: Met

Query: Does the molecule "C=CC(=O)N1CCC[C@@H](Nc2nc(Nc3cccnc3)nc3[nH]ccc23)C1" have recorded half-life at 1 μM that is 200 min or more?
Reply: Met

Query: Is half-life at 1 μM for C=CC(=O)N1C[C@H](C)C[C@@H](Nc2ncnc3[nH]ccc23)C1 (racemic) [Example 65] at or above 200 min?
Reply: Met

Query: Can "C=CC(=O)N1CC[C@H](Nc2cnc3[nH]cc(C(=O)NC(C)C)c3n2)[C@H](OC)C1" be said to have half-life at 1 μM at or above 200 min?
Reply: Met

Query: Does half-life at 1 μM meet or surpass 200 min for "C=CC(=O)N1C[C@@H](F)C[C@@H](Nc2ncnc3[nH]ccc23)C1" ?
Reply: Met

Query: Exam item: decide whether the reported half-life at 1 μM for C=CC(=O)N1CCC(Nc2cnc3[nH]cc(C(=O)NC4CC(F)C4)c3n2)CC1 (centres unmarked) is at least 200 min.
Reply: Met

Query: Quick check: does "C=CC(=O)N1CCN(c2cnc3[nH]cc(C(=O)NC(C)C)c3n2)C[C@@H]1CC(C)C" have half-life at 1 μM greater than or equal to 200 min?
Reply: Met

* * *

# PROTOCOL: Stability of JAK3 covalent inhibitors in human whole blood
# Format: in vitro ADME
# CONDITIONS: both sexes, whole blood, 37° C., read-out: Human blood stability t1/2
Short version: half-life at 1 μM at least 4 h is Fulfilled, less is Not fulfilled.

MOLECULE	CAT
C=CC(=O)N1CCN(c2cnc3[nH]cc(C(=O)NC(C)C)c3n2)CC1(C)C	Fulfilled
C=CC(=O)N1CCC(Nc2cnc3[nH]cc(C(=O)NC(C)(C)CC)c3n2)CC1	Not fulfilled
C=CC(=O)N1CC(Nc2cnc3[nH]cc(C(=O)NC(C)C)c3n2)C1	Not fulfilled

Query: Could you tell me if the measured half-life at 1 μM of "C=CC(=O)N1CCC(Oc2cnc3[nH]cc(-c4ccnc(C)c4)c3n2)CC1" reaches 4 h or more?
Reply: Fulfilled

* * *

# TEST_TARGET: JAK3 enzyme (Homo sapiens (Human), UniProt P52333)
# Sequence (P52333 whole entry, species assumed): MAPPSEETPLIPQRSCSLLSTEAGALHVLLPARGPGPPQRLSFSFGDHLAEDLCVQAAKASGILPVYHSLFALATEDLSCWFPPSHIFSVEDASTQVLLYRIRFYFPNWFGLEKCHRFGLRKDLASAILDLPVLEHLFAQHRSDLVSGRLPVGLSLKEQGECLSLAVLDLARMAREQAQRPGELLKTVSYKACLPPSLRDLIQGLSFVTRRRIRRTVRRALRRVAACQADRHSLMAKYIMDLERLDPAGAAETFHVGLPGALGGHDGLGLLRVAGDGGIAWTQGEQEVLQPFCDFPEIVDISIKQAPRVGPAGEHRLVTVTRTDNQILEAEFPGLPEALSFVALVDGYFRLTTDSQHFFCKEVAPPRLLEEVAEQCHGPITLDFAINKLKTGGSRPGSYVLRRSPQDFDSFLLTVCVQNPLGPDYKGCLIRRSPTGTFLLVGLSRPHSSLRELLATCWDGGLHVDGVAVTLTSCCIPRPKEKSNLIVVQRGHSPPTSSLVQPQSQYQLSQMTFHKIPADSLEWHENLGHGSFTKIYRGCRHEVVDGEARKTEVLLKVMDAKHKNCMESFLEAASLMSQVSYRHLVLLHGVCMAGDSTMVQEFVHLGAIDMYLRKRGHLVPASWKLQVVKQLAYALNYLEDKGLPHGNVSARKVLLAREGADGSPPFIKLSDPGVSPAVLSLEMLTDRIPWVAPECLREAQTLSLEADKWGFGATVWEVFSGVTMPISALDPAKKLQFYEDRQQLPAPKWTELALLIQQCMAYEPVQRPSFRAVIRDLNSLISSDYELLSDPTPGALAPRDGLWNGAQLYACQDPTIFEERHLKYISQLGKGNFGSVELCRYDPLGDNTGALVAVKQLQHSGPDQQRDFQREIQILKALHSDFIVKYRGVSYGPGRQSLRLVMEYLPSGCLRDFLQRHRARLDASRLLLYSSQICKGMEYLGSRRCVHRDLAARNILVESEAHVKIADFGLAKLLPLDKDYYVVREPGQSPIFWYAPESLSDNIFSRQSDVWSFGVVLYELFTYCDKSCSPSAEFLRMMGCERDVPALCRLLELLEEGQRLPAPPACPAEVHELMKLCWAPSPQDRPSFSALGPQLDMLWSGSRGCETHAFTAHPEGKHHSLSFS
# PROTOCOL: JAK Caliper enzyme assay at 4 μM ATP
# Format: biochemical
READOUT_LABEL: IC50

Known IC50 results, listed for orientation:
MOLECULE	IC50
C/C=C/C(=O)N1CC[C@@H](O)[C@@H](Nc2ncnc3[nH]ccc23)C1 (racemic) [Example 160]	> 10000 nM
C=CC(=O)N1C[C@@H]2C[C@H]1CN2c1cnc2[nH]cc(C(=O)NC(C)C)c2n1 [Example 300]	0.9 nM
C=CC(=O)N1C[C@H](Nc2ncnc3[nH]ccc23)[C@H]2CC[C@@H]1C2 (racemic) [Example 116]	418 nM
C=CC(=O)N1CCC[C@H](Nc2ncnc3[nH]ccc23)[C@H]1C (racemic) [Example 121]	648 nM

Now, please, on to the next molecule.
Per the records, this molecule ( C=CC(=O)N1CC[C@H](O)[C@@H](Nc2ncnc3[nH]ccc23)C1 (racemic) [Example 113] ) has IC50 equal to 42.4 nM

* * *

Attribute: half-life at 1 μM
# PROTOCOL: Stability of JAK3 covalent inhibitors in human whole blood
# Format: in vitro ADME
# CONDITIONS: both sexes, whole blood, 37° C., read-out: Human blood stability t1/2

Data point: "C=CC(=O)N1CCC(Oc2cnc3[nH]cc(-c4cnn(C)c4)c3n2)CC1" ; half-life at 1 μM = > 6 h

* * *

# PROTOCOL: Stability of JAK3 covalent inhibitors in human whole blood
# Assay type: in vitro ADME
# CONDITIONS: both sexes, whole blood, 37° C., read-out: Human blood stability t1/2
READOUT_LABEL: half-life at 1 μM

For orientation, consider the following solved cases.
COMPOUND	half-life at 1 μM
C=CC(=O)N1CCC(Nc2cnc3[nH]ccc3n2)CC1	> 6 h
C=CC(=O)N1CCC(Nc2cnc3[nH]cc(C(=O)NCC(C)CC(F)(F)F)c3n2)CC1 (centres unmarked)	> 6 h
C=CC(=O)N1CCC(Nc2cnc3[nH]cc(-c4ccc(C)nc4)c3n2)CC1	> 6 h

half-life at 1 μM in this record for "C=CC(=O)N1CCC(Nc2cnc3[nH]cc(C(=O)NC4CCCC4)c3n2)CC1" : > 6 h

Input "C=CC(=O)N1C[C@H](Nc2ncnc3[nH]cc(C#N)c23)CC[C@@H]1C" . Output half-life at 1 μM: 4.83 h

* * *

# PROTOCOL: Stability of JAK3 covalent inhibitors in human whole blood
# Type: in vitro ADME
# CONDITIONS: both sexes, whole blood, 37° C., read-out: Human blood stability t1/2
READOUT_LABEL: half-life at 1 μM

Consider the reported half-life at 1 μM for these compounds:
COMPOUND	ENDPOINT_VALUE
C=CC(=O)N1CC(Nc2ncnc3[nH]ccc23)CCC1(C)C (stereo not drawn)	> 6 h
C=CC(=O)N1C[C@@H](Nc2ncnc3[nH]ccc23)CC[C@H]1CO	> 6 h
C=CC(=O)N1CCC(Nc2cnc3[nH]cc(C(=O)NC4CCC4)c3n2)CC1	> 6 h
C=CC(=O)N1CCC[C@@H](Nc2ncnc3[nH]cc(-c4cnn(C)c4)c23)C1	> 6 h
C=CC(=O)N1CCC(Nc2cnc3[nH]cc(C(=O)N[C@H](C)CC)c3n2)CC1	> 6 h

# input for lookup
Documented half-life at 1 μM of "C=CC(=O)N1CCC(Oc2cnc3[nH]cc(C(=O)NC(C)(C)C)c3n2)CC1" : 5.47 h

* * *

# TEST_TARGET: JAK3 enzyme (Homo sapiens (Human))
# PROTOCOL: JAK Caliper enzyme assay at 1 mM ATP
# Type: biochemical
# maps each entry to its IC50

A selection of reference data follows.
MOLECULE	TEST_TARGET	IC50
C=CC(=O)N1CCC[C@H](Nc2ncnc3[nH]ccc23)[C@H]1C (racemic) [Example 121]	JAK3 enzyme (Homo sapiens (Human))	> 10 µM
C=CC(=O)N1C[C@H](Nc2ncnc3[nH]ccc23)[C@H]2CC[C@@H]1C2 (racemic) [Example 116]	JAK3 enzyme (Homo sapiens (Human))	> 10 µM

Quick note, IC50 for C=CC(=O)N1C[C@@H](Nc2ncnc3[nH]ccc23)[C@@H]2CC[C@H]1C2 [Example 126] landed at > 10 µM

* * *

# PROTOCOL: Stability of JAK3 covalent inhibitors in human whole blood;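 also: parent compound remaining over incubation time quantified by LC-MS/MS as peak area ratio against an internal standard, using pooled K2-EDTA blood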
# Format: in vitro ADME
# CONDITIONS: both sexes, whole blood, 37° C., read-out: Human blood stability t1/2
Each entry below carries its reported half-life at 1 μM.
Unit h implied. Number only.

MOL_SMILES	half-life at 1 μM (h)
C=CC(=O)N1CCC(Nc2cnc3[nH]cc(C(=O)N[C@@H]4CCC[C@@H]4F)c3n2)CC1	3.35

Reported half-life at 1 μM of "C=CC(=O)N1CC(Nc2cnc3[nH]ccc3n2)C1" : 1.35
